- System: HT29 colon
- test.method.notes: NCI-60 one-dose screen, 48 h (100 = growth as untreated, 0 = no growth, -100 = all killed)
- stated.conditions: 10 µM unless noted
The panel holds about 83,000 compounds, 20% with a hit somewhere; the sample as a whole holds those more often.
recorded.endpoint: growth (%)

molecule: COc1cccc(/C=N\Nc2ccc([N+](=O)[O-])cn2)c1O
obs.value: 99.1
//
molecule: S=C(S)Oc1cccc2cccnc12
obs.value: 98
//
molecule: COc1ccccc1-[n+]1cc(-c2ccc(-c3ccccc3)cc2)n2c1CCCCC2
obs.value: 1.07
//
molecule: CCCCn1cnc2c(SCc3ccc([N+](=O)[O-])cc3)nc(N)nc21
obs.value: 98.6
//
molecule: C=C1C[C@@]2(C)C(CC[C@]3(C)C2CC=C2C4CC(C)(C)C[C@@H](OC(=O)/C(C)=C\C)[C@]4(C(=O)O)CC[C@]23C)C(C)(C)C1=O (some centres undefined)
obs.value: -20.1
//
molecule: COc1cc(Nc2ncccc2/C=C/C(=O)c2cc(OC)c(OC)c(OC)c2)cc(OC)c1OC
obs.value: 67.8
//
molecule: COc1ccc(-c2cc(C(=O)Nc3ccc(Br)cc3)nc3[nH]c(=O)sc23)cc1
obs.value: 50.1
//
molecule: CCCCCCCCCCCCNC(=O)N[C@H](C(=O)N[C@H]1/C=C/CCNC(=O)/C=C/[C@H](C)NC1=O)C(C)C
obs.value: 11.8
//
molecule: Cc1cc(N)cc(C)c1-c1c(Br)cc(N)cc1Br
obs.value: 9.08
//
molecule: Cn1c(-c2ccccc2)cc(=O)n1-c1ccccc1
obs.value: 106
//
molecule: Fc1cc(-c2cnc3nonc3n2)c(Cl)cc1Cl
obs.value: 87.9
//
molecule: COC(=O)c1ccc2c(c1)nc(-c1cc3ccccc3[nH]c1=O)n2-c1cc(C(C)(C)C)[nH]n1
obs.value: 7.39
//
molecule: Oc1c(C(Nc2ccccc2Br)c2ccccc2)ccc2cccnc12 (centres undefined)
obs.value: 24
//
molecule: O=C(O)c1ccccc1Oc1cc(-c2ccco2)nc(OCCN2CCOCC2)n1
obs.value: 92.5
//
molecule: CS(=O)(=O)c1ccc(Cl)c([N+](=O)[O-])c1
obs.value: 94.7
//
molecule: CC(=O)N1N=C(C2C(=O)N(C)C(=O)N(C)C2=O)CC1c1ccccc1C(=O)O (centres undefined)
obs.value: 98.9
//
molecule: Cc1ccc(NC(=O)c2cc(NCc3cc(O)ccc3O)ccc2O)cc1
obs.value: 82.9
//
molecule: COc1cc(-c2nc(-c3ccc(-c4nc5ccc(F)cc5[nH]4)cc3)no2)cc(OC)c1OC
obs.value: 9.19
//
molecule: O=C(CCl)Nc1cc(O)c2c(c1)C(=O)c1cccc(O)c1C2=O
obs.value: -88
//
molecule: CCN(CC)c1ccc(/C=N/NC(=O)C[N+](C)(C)C)cc1
obs.value: 103
//
molecule: COC(=O)c1ccc2c(c1)nc(-c1ccc(Cl)cc1)n2-c1cc(C(C)(C)C)[nH]n1
obs.value: 23
//
molecule: COc1ccc(CNc2c3ccccc3nc3ccccc23)cc1F
obs.value: 12.2
//
molecule: CCCCCCCOc1cccc(/C=C2\N=C3SCCCN3C2=O)c1
obs.value: 88.9
//
molecule: c1cn2cc(-c3ccc4ncn(C5CCCCC5)c4c3)nc(-c3ccc4c(c3)ncn4C3CCCCC3)c2n1
obs.value: -26.2

Sourced from PubChem BioAssay (NCI)
